- measurement target: human PKN1 (Homo sapiens)
- run description: In vitro kinase assay, δpeptide substrate, PKN1 catalytic domain
- Assay type: biochemical
No end group written: not given here.
quantity measured: Ki (nM)
Answers are plain numbers, in nM.

Query string: Look at this sequence and give its reported Ki. PRLRRQKKIFSKQQG [PRL]
Result string: 700

###

- measurement target: human PKN1 (Homo sapiens, UniProt Q16512)
- Sequence (Q16512 543-942 limits assumed): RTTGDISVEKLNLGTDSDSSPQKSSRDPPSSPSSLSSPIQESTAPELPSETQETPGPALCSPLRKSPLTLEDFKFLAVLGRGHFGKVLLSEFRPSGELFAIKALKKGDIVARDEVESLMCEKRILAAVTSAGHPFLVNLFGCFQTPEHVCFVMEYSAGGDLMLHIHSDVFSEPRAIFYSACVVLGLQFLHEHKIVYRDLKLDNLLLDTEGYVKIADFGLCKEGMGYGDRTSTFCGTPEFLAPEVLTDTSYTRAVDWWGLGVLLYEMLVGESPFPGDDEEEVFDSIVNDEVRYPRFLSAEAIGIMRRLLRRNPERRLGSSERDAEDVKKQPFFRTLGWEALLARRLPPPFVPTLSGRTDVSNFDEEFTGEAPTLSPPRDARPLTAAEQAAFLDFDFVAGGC
- run description: In vitro kinase assay, δpeptide substrate, PKN1 catalytic domain
- Assay type: biochemical
- conditions: δpeptide substrate; various peptide concentrations, up to 50 μM; 30 °C, 5 min, pH 7.5, 40 μM ATP; representative of three independent experiments
quantity measured: inhibition of peptide kinase activity of PKN1

| residue string | endpoint result |
| --- | --- |
| AEVTFRNPVIERIPRLRR | partially inhibited |
| PVIERIPRLRRQKKI | partially inhibited |
| QKKIFSKQQGKAFQAARQMN | partially inhibited |
